Reported values of EC50 for individual entries
Test system: human FXN
procedure_summary: FXN mRNA expression by qRT-PCR in GM15850 cells after 48 hr compound treatment
Type: cell-based
conditions_used: Homo sapiens; GM15850 cells, 48 hr incubation, hFXN normalized to hGAPDH; read-out: EC50 WT (nM, 48 hr)
attribute_measured: EC50

[[record]]
compound = "Cc1sc2c(c1C)C(c1ccc(Cl)cc1)=N[C@@H](CC(=O)Nc1cccc(OCCOCCOCCOCCOCCOCCOCCOCCOCCNC(=O)CCNC(=O)c3nc(NC(=O)CCNC(=O)c4cc(NC(=O)c5nc(NC(=O)CCNC(=O)c6cc(NC(=O)c7nccn7C)cn6C)cn5C)cn4C)cn3C)c1)c1nnc(C)n1-2"
target_desc = "human FXN"
result = "100 to 500 nM"

[[record]]
compound = "Cc1sc2c(c1C)C(c1ccc(Cl)cc1)=N[C@@H](CC(=O)Nc1cncc(OCCOCCOCCOCCOCCOCCOCCOCCOCCNC(=O)CCNC(=O)c3nc(NC(=O)CCNC(=O)c4cc(NC(=O)c5nc(NC(=O)CCNC(=O)c6cc(NC(=O)c7nccn7C)cn6C)cn5C)cn4C)cn3C)c1)c1nnc(C)n1-2"
target_desc = "human FXN"
result = "< 100 nM"

[[record]]
compound = "CC(=O)N1c2ccc(-c3ccc(C(=O)NCCOCCOCCOCCOCCOCCOCCOCCOCCNC(=O)c4nc(NC(=O)CCNC(=O)c5cc(NC(=O)c6nc(NC(=O)CCNC(=O)c7cc(NC(=O)c8nc(NC(=O)CCNC(=O)COCCOCCOCCNC(=N)N)cn8C)cn7C)cn6C)cn5C)cn4C)cc3)cc2[C@H](Nc2ccc(Cl)cc2)C[C@@H]1C"
target_desc = "human FXN"
result = "100 to 500 nM"

[[record]]
compound = "Cc1sc2c(c1C)C(c1ccc(Cl)cc1)=N[C@@H](CC(=O)Nc1ccc(OCCOCCOCCOCCOCCOCCC(=O)NCCCN(C)CCCNC(=O)c3cc(NC(=O)c4nc(NC(=O)CCNC(=O)c5cc(NC(=O)c6nc(NC(=O)CCNC(=O)c7cc(NC(=O)c8nccn8C)cn7C)cn6C)cn5C)cn4C)cn3C)cc1)c1nnc(C)n1-2"
target_desc = "human FXN"
result = "100 to 500 nM"

[[record]]
compound = "Cc1sc2c(c1C)C(c1ccc(Cl)cc1)=N[C@@H](CC(=O)Nc1ccc(OCCOCCOCCOCCOCCOCCOCCOCCC(=O)NCCCN(C)CCCNC(=O)c3cc(NC(=O)c4nc(NC(=O)CCNC(=O)c5cc(NC(=O)c6nc(NC(=O)CCNC(=O)c7cc(NC(=O)c8nccn8C)cn7C)cn6C)cn5C)cn4C)cn3C)cc1)c1nnc(C)n1-2"
target_desc = "human FXN"
result = "100 to 500 nM"

[[record]]
compound = "Cc1sc2c(c1C)C(c1ccc(Cl)cc1)=N[C@@H](CC(=O)Nc1ccc(OCCOCCOCCOCCOCCOCCOCCNC(=O)CCNC(=O)c3nc(NC(=O)CCNC(=O)c4cc(NC(=O)c5nc(NC(=O)CCNC(=O)c6cc(NC(=O)c7nccn7C)cn6C)cn5C)cn4C)cn3C)cc1)c1nnc(C)n1-2"
target_desc = "human FXN"
result = "100 to 500 nM"


Attribution: patent US20240050576A1
